measurement.context: in methanol, 293.15 K
observable: solubility (mole fraction)
Give the value as a plain number.

I am curious: what solubility (mole fraction) value has been reported for Cc1ccc(C(=O)O)cc1 ?
0.023

* * *

measurement.context: in methanol, 303.15 K
observable: solubility (mole fraction)
Answer field: number only, no words.

Record request: solubility (mole fraction) value, item Cc1ccc(C(=O)O)cc1
0.029

* * *

measurement.context: in methanol, 323.15 K
observable: solubility (mole fraction)
Give your answer as a number; write no unit.

Which solubility (mole fraction) value is on record for Cc1ccc(C(=O)O)cc1 ?
0.047

* * *

measurement.context: in acetic acid, 313.15 K
observable: solubility (mole fraction)
Answer with a bare number; do not write a unit.

Find the recorded solubility (mole fraction) belonging to Cc1ccc(C(=O)O)cc1 and report it.
0.077

* * *

measurement.context: in methanol, 288.15 K
observable: solubility (mole fraction)
Kindly provide the number alone.

Reported solubility (mole fraction) for Cc1ccc(C(=O)O)cc1 : what is it?
0.021

* * *

measurement.context: in acetic acid, 333.15 K
observable: solubility (mole fraction)
Please respond with just the number, no unit label.

Could you tell me which solubility (mole fraction) is on file for Cc1ccc(C(=O)O)cc1 ?
0.113

* * *

measurement.context: in acetic acid, 323.15 K
observable: solubility (mole fraction)

Data request, read-out solubility (mole fraction), for Cc1ccc(C(=O)O)cc1
0.095

* * *

measurement.context: in methanol, 333.15 K
observable: solubility (mole fraction)

What measured solubility (mole fraction) goes with Cc1ccc(C(=O)O)cc1 ?
0.061

* * *

measurement.context: in acetic acid, 288.15 K
observable: solubility (mole fraction)
Answer with a number only.

Dear colleague, I am looking for the recorded solubility (mole fraction) of the following compound: Cc1ccc(C(=O)O)cc1
0.048

* * *

measurement.context: in acetic acid, 328.15 K
observable: solubility (mole fraction)
Just the number, please.

Tell me the measured solubility (mole fraction) of Cc1ccc(C(=O)O)cc1 , please.
0.103

* * *

measurement.context: in acetic acid, 303.15 K
observable: solubility (mole fraction)
Respond with the number and no other words.

So what's the measured solubility (mole fraction) for this one? Cc1ccc(C(=O)O)cc1
0.064

* * *

measurement.context: in methanol, 308.15 K
observable: solubility (mole fraction)

Can you share its solubility (mole fraction)? I mean this molecule: Cc1ccc(C(=O)O)cc1
0.033

* * *

measurement.context: in acetic acid, 298.15 K
observable: solubility (mole fraction)
Provide a numeric answer; units are not to be included.

Entry under review: Cc1ccc(C(=O)O)cc1 . Reported solubility (mole fraction)?
0.059

* * *

measurement.context: in acetic acid, 283.15 K
observable: solubility (mole fraction)
The answer should be a number; do not append a unit.

Item under review: Cc1ccc(C(=O)O)cc1 . Reported solubility (mole fraction)?
0.043

* * *

measurement.context: in acetic acid, 308.15 K
observable: solubility (mole fraction)

Find the recorded solubility (mole fraction) belonging to Cc1ccc(C(=O)O)cc1 and report it.
0.07
